endpoint: melting point

1) CC(C)(C)OC(=O)N1CCC(C2=C(C#N)C(c3cccc(C#N)c3Br)c3c[nH]nc3N2)CC1 (stereo unspecified)	> 270 °C
2) COc1cc(N)c(Cl)cc1C(=O)Nc1cc(OC)c(C(=O)N[C@H]2CCN(CCCOc3ccc(F)cc3)C[C@H]2OC)cc1Cl (relative stereo)	182 °C
3) Clc1ccccc1-c1nn2cc(-c3ccccc3)nc2s1	126 °C
4) COc1c(N)cc(-c2c3ccccc3c(Br)c3sc(C)c(C)c23)cc1Br	198 to 200 °C
5) C[C@H]1[C@@H](C(C)(C)O)CCN1c1ccc(C#N)c(Cl)c1F	125 to 126 °C
6) O=C(O)c1ccc2c(c1)C(=O)c1cc3c(cc1OC2)OCO3	320 to 321 °C

###

Overview of reported melting point across a group of compounds:
endpoint: melting point

1) CC(C)(C)OC(=O)NC(Cc1c[nH]cn1)C(=O)N1CCCC1C(N)=O (configuration not stated)	97 to 101 °C
2) O=C(NCC1CCN(CC2COc3ccccc3O2)CC1)c1ccccn1 (configuration not stated)	95 to 97 °C
3) CC(=O)C1C2=CCC3C(CCC4(C)C(O)C(O)CC34)C2(C)CCC1O (configuration not stated)	152 to 153 °C
4) NC(=O)N1C(=O)C(C(=O)c2sccc2Br)c2cc(Cl)ccc21 (configuration not stated)	216 to 217 °C
5) FC(F)(F)C(F)(F)C1(CNC2=NCCO2)CCCCC1	115 to 118 °C
6) CC(O)c1cc2c(cn1)CCCC2 (configuration not stated)	44 to 45 °C
7) CCOC(=O)c1cnc2nc(S(=O)(=O)Cl)nn2c1C	65 to 69 °C
8) O=C(Nc1ccc(C(=O)N2CCCc3ccccc32)cc1)c1ccccc1	202 to 204 °C
9) ON=C(CCC(CN1CCN(c2ccccn2)CC1)C(=NO)c1ccccc1)c1ccccc1 (configuration not stated)	75 to 78 °C
10) O=C(C=Cc1ccc2c(c1)OCO2)C1C(=O)CC(c2ccccc2)CC1=O (configuration not stated)	157 to 158 °C
11) Cc1ccc(C2=Cc3cc(C(=O)Nc4ccc(CN(C)C5CCOCC5)cc4)ccc3OC2)cc1	230 to 235 °C
12) COc1ccc(-c2coc3ccc(C(=O)NNC(C)=O)cc23)cc1	219 to 220 °C

###

Overview of reported melting point across a group of molecules:
endpoint: melting point

1) COc1ccc(-c2nc(CC(=O)O)c(-c3ccco3)o2)cc1	177 to 178 °C
2) CCn1nnnc1Cc1ccc(NC(=O)/C=C/c2cnn(C)c2-c2ccc(F)cc2)cc1	206 to 207 °C
3) CC(C)(C)OC(=O)NCC(Cl)c1ccccc1 (stereo not given)	57 to 59 °C
4) CC1(C)CC(=O)C2=C(C1)NC1=C(C(=O)CC(C)(C)C1)C2c1cccc(Oc2ccncc2)c1	186 to 188 °C
5) COc1ccc2c(c1)sc1nc(C=O)cn12	214 to 215 °C

###

Overview of reported melting point across a group of compounds:
endpoint: melting point

1. Nc1nc(NCCc2ccc(O)cc2)nc2nc(-c3ccco3)nn12	225 to 227 °C
2. C=Cc1cccc2c1-c1ccc3c(c1C(C1(C)CC=CCC1)O2)C(C)=CC(C)(C)N3 (configuration not stated)	198 to 201 °C
3. Nc1ncc(Oc2ccc(Cl)cc2)c(N[C@H]2CC[C@H](O)CC2)n1	154 to 155 °C
4. CCCCCC1=NNC(=O)CC1	40 °C
5. O=C1c2ccccc2C(=O)N1c1ncc(C(Cl)Cl)nc1CO	188 to 189 °C
6. Cc1nc2c(S(=O)(=O)Cl)cccc2s1	100 to 102 °C
7. CN(NC(=O)c1c(Cl)cccc1Cl)S(=O)(=O)c1ccccc1	177 to 178 °C
8. O=C(NC(CS)Cc1ccccc1)N1CCOCC1 (single isomer, unassigned; (+))	84 °C
9. CCNc1nnc2ccc(-c3cccc(N(C)C(=O)CC)c3)nn12	198 to 199 °C
10. N#Cc1cccc(-c2ccco2)n1	90.2 to 90.3 °C
11. Cn1nc(N)nc1NCCCOc1cccc2c(N3CCOCC3)nccc12	178 to 180 °C
12. O=C(NCc1ccccn1)c1ccc(C=Cc2ccccc2OCc2ccccc2)cc1	123 to 127 °C
13. CS(=O)(=O)c1ccc(-c2cnn(CC(F)(F)F)c(=O)c2Nc2cccc(F)c2)cc1	156 to 158 °C
14. Cn1cc(Sc2ccccc2)c(=O)c(-c2ccccc2)c1	164 to 165 °C
15. COc1ccc(C2c3ccccc3C(c3ccccc3)C2C(=O)O)cc1 (configuration not stated)	164 to 166 °C
16. NC(=O)NCC1CCCc2cc(NS(=O)(=O)c3cccc(F)c3)ccc21 (configuration not stated)	162 to 163 °C
17. CC1(C)CC(N2CCCCCC2=O)CC(C)(C)N1O	212 to 215 °C
